// provenance: ChEMBL document CHEMBL4296182

Test system: Staphylococcus aureus
assaySummary: Antibacterial activity against Staphylococcus aureus MRSA ATCC 43300 (CO-ADD:GP_020); MIC in CAMBH media using NBS plates, by Resazurin F(560/590)
Type: functional
testParameters: Concentration 20 uM, ASSAY_TEST Inhibition of Bacterial Growth, detection method Resazurin, Fluorescence (ex560/em590), MEDIA CAMHB, plate type 384well, CORNING #3640, time 18 hr
reportedProperty: Inhibition (%)

O=C(O)c1ccc2c(c1Nc1ccccc1)C(=O)c1ccccc1C2=O :: 9.32
COC(=O)C1=C(C)NC(C)=C(C(=O)OC)C(N2C(=O)CCC2=O)C1 (centres undefined) :: 18.88
CS(=O)(=O)O.Cc1cc2c(cc1[N+](=O)[O-])NC(CNC(C)C)CC2 (centres undefined) :: 12.97
NC(=O)Oc1cccc(OC(N)=O)c1 :: 9.68
